FYI, the data here is from PubChem BioAssay (NCI).

Tested on: NCI/ADR-RES ovarian
assay_protocol: NCI-60 one-dose screen, 48 h
test_settings: 10 µM unless noted
Compounds without any hit were thinned out: in the full panel of roughly 83,000, 20% have a hit. Calls of active or inactive are those of the source. The calls were made as follows: active = growth percent below 10; inactive = the rest.
Outcome codes: active, inactive

1. CS(=O)c1nccc(-c2c(-c3ccc(F)c(OCc4ccccc4)c3)nc3sccn23)n1 (centres undefined); inactive
2. CCN1C(=O)N(CC)C2SC(N/N=C/c3ccc(F)cc3)=NC21 (centres undefined); active
3. Cc1ccc(-c2cc(-c3ccc(N(C)C)cc3)n3c(n2)nc2ccccc23)cc1; inactive
4. CCC(CC)n1c(=O)c(SC2=NC3C(NN2)N(CC)C(=O)N3CC)c(C(=O)O)c2ccccc21 (centres undefined); inactive
5. CCOc1ccc2nc(NC(=O)Nc3ccccc3C)sc2c1; inactive
6. COc1ccc(/C=C/C(=O)c2nnn(-c3ccc(C(=O)O)cc3)c2C)cc1OC; inactive
7. COc1ccc(-c2nc3cc(Cl)c(Cl)cc3n2CC(=O)N=Nc2c(O)[nH]c3ccc(Br)cc23)cc1; active
8. COc1ccc(/C=N/Nc2nc(Nc3ccccc3)nc(Nc3ccc(S(N)(=O)=O)cc3)n2)cc1; inactive
9. Cc1ccc(-n2cc(/C=C/C(=O)c3ccc(S(C)(=O)=O)cc3)c(-c3ccc(S(C)(=O)=O)cc3)n2)cc1; inactive

----------
System: ACHN renal
assay_protocol: NCI-60 one-dose screen, 48 h
test_settings: 10 µM unless noted
The panel holds about 83,000 compounds, 20% with a hit somewhere; the sample as a whole holds those more often. Activity calls are given as the source filed them. The calls were made as follows: active = growth percent below 10; inactive = the rest.
Outcome codes: Yes for active, No for inactive

1. CN1CCN(c2ccc(C(=O)Nc3cccc(-c4cn(-c5ccc(S(N)(=O)=O)cc5)nn4)c3)cc2C(F)(F)F)CC1; No
2. CS(=O)(=O)c1ccc2c(c1)c1c(n2Cc2ccc(Cl)cc2)CCCC1; No
3. COc1ccc(-c2ccnc3c(C#N)c(Nc4ccccc4)nn23)cc1OC; No
4. C=CCn1c(SCC(=O)Nc2cccc(C(=O)/C=C/c3ccc(OC)c(OC)c3)c2)nc2ccccc2c1=O; No
5. C/C(=C(/c1ccc(O)cc1)c1ccc(OCCN(C)C)cc1)c1ccc(Cl)cc1; No
6. COc1c([C@@H](CC(C)C)OC(C)=O)ccc2c1C(=O)OCc1cc(C)cc(O)c1O2; No
7. NC(=O)C(=Cc1ccc(Cl)cc1)C(N)=O; No
8. O=C1[C@H]2Cc3c([nH]c4ccccc34)[C@H](c3ccc(Cl)cc3)N2C(=O)CN1C1CCN(Cc2c(Cl)cccc2Cl)CC1; No
9. O=C(Nc1cccc(-c2nc(-c3ccc(NC(=O)c4cccs4)cc3Cl)no2)c1)Nc1ccc(NC(=O)C2CC2)c(C(F)(F)F)c1; Yes
10. CCCCCCCCNC(=O)c1ccc(Cn2c(CCCC)nc3c(N)nc4ccccc4c32)cc1; No
11. COc1ccc(N)cc1C(=O)Nc1cccc(-c2cc(=O)c3c(OC)c(OC)c(OC)cc3o2)c1; No
12. CNC(=O)c1c(NC(=O)c2ccc(F)cc2F)sc2c1CCC(=O)C2; Yes
13. CCN1C(=O)N(CC)C2SC(N/N=C/c3cccs3)=NC21 (stereo not drawn); No
14. CC1OC(O[C@@H]2[C@H](O)C(CO)OC(O[C@H]3COC(O[C@H]4CC[C@]5(C)[C@H]6CC[C@]78OC[C@@]9(CC[C@](C)(C=O)C[C@H]97)C(=O)C[C@@]8(C)[C@]6(C)CC[C@H]5C4(C)C)[C@@H](O)[C@@H]3O)[C@H]2OC2OC[C@@H](O)[C@@H](O)[C@@H]2O)[C@@H](O)[C@@H](O)[C@H]1O (stereo partly drawn); No
15. COc1ccc(NS(=O)(=O)c2ccc(-c3cnc(C4CC4)o3)cc2)cc1Cl; No
16. Cc1nn(-c2ccc(Cl)cc2)c(C)c1N=Nc1ccc2oc(=O)ccc2c1; No
17. C#C[C@]1(O)CC[C@H]2[C@@H]3CC=C4c5sc(Nc6cc(Cl)ccn6)nc5CC[C@]4(C)[C@H]3CC[C@@]21C; No
18. Nc1nc(-c2cccc([N+](=O)[O-])c2)c(N=Nc2ccccc2[N+](=O)[O-])s1; Yes

----------
Measured growth accompanies every entry in the list below.
System: SK-MEL-5 melanoma
assay_protocol: NCI-60 one-dose screen, 48 h (100 = growth as untreated, 0 = no growth, -100 = all killed)
test_settings: 10 µM unless noted
Compounds without any hit were thinned out: in the full panel of roughly 83,000, 20% have a hit.
observation_type: growth (%)

1. O=C1/C(=C/c2ccccc2[N+](=O)[O-])Oc2ccc(O)cc21; 90.8
2. Oc1ccccc1-c1nnc(SCc2ccc(O)c3ncccc23)o1; -4.08
3. CN1C(=O)N(C)C2Nn3c(s/c(=C\c4ccccn4)c3=O)=NC21 (stereo not given); 102
4. Fc1ccccc1/C=C(/C1=NCCN1)n1cnc2ccccc21; 106
5. COc1ccc(CN2C(=O)/C(=C/c3nc(CO)cs3)SC2=S)cc1; 97.9
6. COc1ccc(-c2nnc(/N=C3/C(=O)Nc4ccc(Br)cc43)o2)cc1; 98.8
7. O=C1NC(=O)c2c1c1c3ccccc3ccc1c1[nH]c3ccccc3c21; -18.1
8. Cc1ccc(-n2cc(/C=C/C(=O)c3ccc(S(C)(=O)=O)cc3)c(-c3ccc(S(C)(=O)=O)cc3)n2)cc1; 94.4
9. COc1cnc2c(c1)C(=O)c1c-2n(CCCn2ccnc2)c(=O)c2cc(OC)c(OC)cc12; -28.4
10. CCNCCCn1c2c(c3cc(OC)c(OC)cc3c1=O)C(=O)c1cc(OC)cnc1-2; -18.2

----------
System: SN12C renal
assay_protocol: NCI-60 one-dose screen, 48 h (100 = growth as untreated, 0 = no growth, -100 = all killed)
test_settings: 10 µM unless noted
About 83,000 compounds went through this panel and 20% of them were active in at least one assay; those are over-represented in the sample as a whole.
# cutoff 90% applies to growth; >= gives true, < gives false

1) Cc1cc(Cl)cc(NS(=O)(=O)c2ccc(-c3cnc(C4CC4)o3)cc2)c1; false
2) CC1CCN(S(=O)(=O)c2ncsc2-c2ccccc2)CC1; true
3) COc1cc([C@H]2OC[C@H]3[C@@H]2CO[C@@H]3c2ccc(O)c(OC)c2)ccc1O; false
4) Oc1ccc(CSc2nnc(-c3ccc(Br)cc3)o2)c2cccnc12; false
5) O=C(NCCCCCCNC(=O)c1c2c(nc3ccccc13)-c1cccnc1SC2)c1c2c(nc3ccccc13)-c1cccnc1SC2; false
6) C=C(C)[C@@H]1CC[C@]2(C(=O)ON)CC[C@]3(C)[C@H](CC[C@@H]4[C@@]5(C)C/C(=C/c6ccc(Br)cc6)C(=O)C(C)(C)[C@@H]5CC[C@]43C)[C@@H]12; false
7) C/C(=C(/c1ccc(O)cc1)c1ccc(OCCN(C)C)cc1)c1ccc(Cl)cc1; false
8) C#CCOc1ccc(C(Nc2ccc(OC)cc2)c2nnnn2C2CCCCC2)cc1 (centres undefined); true

----------
Test system: SF-539 CNS
assay_protocol: NCI-60 one-dose screen, 48 h (100 = growth as untreated, 0 = no growth, -100 = all killed)
test_settings: 10 µM unless noted
About 83,000 compounds went through this panel and 20% of them were active in at least one assay; those are over-represented in the sample as a whole.
Measured growth accompanies every entry in the list below.
observation_type: growth (%)

1) C/C=C/[C@@H]1C=C[C@@H]2C[C@H](C)CC[C@H]2[C@]1(C)/C(O)=C1/C(=O)[C@H](CO)N(C)C1=O; 58.5
2) O=C1[C@H]2Cc3c([nH]c4ccccc34)[C@@H](c3c(Cl)cccc3Cl)N2C(=O)CN1C1CCN(Cc2ccccc2)CC1; 93.5
3) C#C[C@]1(O)CC[C@H]2[C@@H]3CC=C4c5sc(Nc6nc(C)cc(OC)n6)nc5CC[C@]4(C)[C@H]3CC[C@@]21C; -14.8
4) COc1ccc(CCN2C(=O)CSC2=S)cc1OC; 93.9
5) C#CCOc1ccccc1C(Nc1ccccc1)c1nnnn1C1CCCCC1 (stereo not given); 101

----------
System: HCC-2998 colon
assay_protocol: NCI-60 one-dose screen, 48 h (100 = growth as untreated, 0 = no growth, -100 = all killed)
test_settings: 10 µM unless noted
Protocol: Growth inhibition of the HCC-2998 human tumor cell line is measured as a screen for anti-cancer activity. Cells are grown in 96 well plates and exposed to the test compound for 48 hours. Compounds are tested at a single concentration, which is 10^-5 M for most compounds. The reported endpoint is percent growth (GI% or GIPRCNT), where numbers from 0 - 100% represent growth inhibition, and numbers from -100% - 0 represent cell death. For example, a value of 40 represents 60% growth inhibition. […]
About 83,000 compounds went through this panel and 20% of them were active in at least one assay; those are over-represented in the sample as a whole. Active and inactive are the calls of the source. How the source made its calls: active means growth percent below 10; inactive means the rest.
observation_type: growth

1. O=c1oc2ccc(-c3ccc(F)cc3F)cc2c(=O)n1-c1cccc(C(F)(F)F)c1; 16.4% (inactive)
2. CCOC(=O)c1c(NC(=O)c2ccc(F)cc2F)sc2c1CCC(=O)C2; 107% (inactive)
3. O=C(COc1ccc(C2SCC(=O)N2c2ccccc2)cc1)c1ccccc1 (stereo unspecified); 102% (inactive)
4. CCOc1c(C#N)c(Nc2ccc(S(N)(=O)=O)cc2)c(C#N)c2nnc(C)n12; 106% (inactive)
5. CC(=O)NC(C)(C)C(=O)N1CCC[C@H]1C(=O)NC(C)(C)C(=O)N[C@@H](C)C(=O)NC(C)(C)C(=O)NC(C)(C)C(=O)N[C@@H](CCC(N)=O)C(=O)NC(C)(C)C(=O)N[C@H](C(=O)NC(C)(C)C(=O)NCC(=O)N[C@@H](CC(C)C)C(=O)NC(C)(C)C(=O)N1CCC[C@H]1C(=O)N[C@H](C(=O)NC(C)(C)C(=O)NC(C)(C)C(=O)N[C@@H](CCC(N)=O)C(=O)N[C@@H](CCC(N)=O)C(=O)N[C@H](CO)Cc1ccccc1)C(C)C)C(C)C; 39.7% [4.25 µM] (inactive)
6. O=S(=O)(NC1CC2CCC1C2)c1ccc2c(c1)C(=NO)c1cc(S(=O)(=O)NC3CC4CCC3C4)ccc1-2 (stereo unspecified); 38.9% (inactive)
